The binders listed here are annotated with their Anti-CD28 Fab (SEQ ID NOs: 696, 697) signal.
- Tested Target: T1, Anti-CD28 Fab (SEQ ID NOs: 696, 697)
- T1 construct: Biotinylated and captured on neutravidin coated plates in the phage ELISA
- T1 sequence (VH, as listed by the source, chain 1 of 2): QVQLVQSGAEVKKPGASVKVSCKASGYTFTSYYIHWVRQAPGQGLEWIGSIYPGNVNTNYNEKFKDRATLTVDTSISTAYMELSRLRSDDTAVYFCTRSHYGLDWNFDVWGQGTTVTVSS
- T1 sequence (VL, as listed by the source, chain 2 of 2): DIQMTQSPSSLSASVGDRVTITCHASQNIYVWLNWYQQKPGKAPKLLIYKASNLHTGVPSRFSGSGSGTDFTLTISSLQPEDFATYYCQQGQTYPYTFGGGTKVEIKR
- Assay Info: phage binding ELISA; biotinylated Fab on neutravidin plate, clonal phage supernatant, anti-M13 HRP detection;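 further: phage from clones picked after panning, added to wells pre-incubated with blocking buffer with or without CD28 antigen, then briefly incubated and washed before detection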
Where no end group is shown, it is not given here.
Readout Type: Anti-CD28 Fab (SEQ ID NOs: 696, 697) signal

* YCEGHAAEYMWKCL (cysteine pairing not given here; also: displayed on phage by fusion to pIII, pIII and linker sequence not given here, Clonal phage of the Peptide-87 library; not shown: fused to the pIII filament protein of the bacteriophage) [Phage-803] | 1.83
* YCDGHSAEYMEKCI (cysteine pairing not given here; also: displayed on phage by fusion to pIII, pIII and linker sequence not given here, Clonal phage of the Peptide-87 library; not shown: fused to the pIII filament protein of the bacteriophage) [Phage-806] | 1.83
* YCDGHSSMYMAKCL (cysteine pairing not given here; also: displayed on phage by fusion to pIII, pIII and linker sequence not given here, Clonal phage of the Peptide-87 library; not shown: fused to the pIII filament protein of the bacteriophage) [Phage-811] | 1.82
* YCEGHAPQYLNKCL (cysteine pairing not given here; also: displayed on phage by fusion to pIII, pIII and linker sequence not given here, Clonal phage of the Peptide-87 library; not shown: fused to the pIII filament protein of the bacteriophage) [Phage-808] | 1.82
* YCEGHSPMYMQKCM (cysteine pairing not given here; also: displayed on phage by fusion to pIII, pIII and linker sequence not given here, Clonal phage of the Peptide-87 library; not shown: fused to the pIII filament protein of the bacteriophage) [Phage-805] | 1.83
* YCAGHSSEYIWKCL (cysteine pairing not given here; also: displayed on phage by fusion to pIII, pIII and linker sequence not given here, Clonal phage of the Peptide-87 library; not shown: fused to the pIII filament protein of the bacteriophage) [Phage-812] | 1.82
* YCDGHTEEYMDKCL (cysteine pairing not given here; also: displayed on phage by fusion to pIII, pIII and linker sequence not given here, Clonal phage of the Peptide-87 library; not shown: fused to the pIII filament protein of the bacteriophage) [Phage-810] | 1.82
* YCEGHSAEYIFKCL (cysteine pairing not given here; also: displayed on phage by fusion to pIII, pIII and linker sequence not given here, Clonal phage of the Peptide-87 library; not shown: fused to the pIII filament protein of the bacteriophage) [Phage-804] | 1.83
* YCDGHLPMYFAKCM (cysteine pairing not given here; also: displayed on phage by fusion to pIII, pIII and linker sequence not given here, Clonal phage of the Peptide-87 library; not shown: fused to the pIII filament protein of the bacteriophage) [Phage-801] | 1.83
* YCDGHLPLYMHKCL (cysteine pairing not given here; also: displayed on phage by fusion to pIII, pIII and linker sequence not given here, Clonal phage of the Peptide-87 library; not shown: fused to the pIII filament protein of the bacteriophage) [Phage-807] | 1.82
* YCDGHSSEYIVKCL (cysteine pairing not given here; also: displayed on phage by fusion to pIII, pIII and linker sequence not given here, Clonal phage of the Peptide-87 library; not shown: fused to the pIII filament protein of the bacteriophage) [Phage-802] | 1.83
* YCEGHSAEFMTKCL (cysteine pairing not given here; also: displayed on phage by fusion to pIII, pIII and linker sequence not given here, Clonal phage of the Peptide-87 library; not shown: fused to the pIII filament protein of the bacteriophage) [Phage-813] | 1.81
* YCDGHAREYMTKCL (cysteine pairing not given here; also: displayed on phage by fusion to pIII, pIII and linker sequence not given here, Clonal phage of the Peptide-87 library; not shown: fused to the pIII filament protein of the bacteriophage) [Phage-809] | 1.82

All values here come from patent US20260242478A1.
